System: 786-0
Test: NCI tumour cell line growth inhibition, 48 h
Calls of active or inactive are those of the source. No stated cut-off is given here; in the data, active = GI50 up to about 1.1 µM and inactive = higher.
Possible outcomes: active, inactive

Cn1sc2ccccc2c1=S | inactive
C/C=C/CP(=O)(c1ccccc1)c1ccccc1 | inactive
CC12CCC(Br)C(C)(C)C1CC=C1C(=O)OCC1O2 (stereo unspecified) | inactive
N#Cc1cc2c(cc1Cl)Sc1nnc(Nc3ccccc3)n1S2(=O)=O | inactive
N=C(N)NCCCC(NCc1c2ccccc2[n+]([O-])c2ccccc12)C(=O)O (stereo unspecified) | inactive
COc1cccc2c1C(=O)c1c(O)c3c(c(O)c1C2=O)C[C@@](O)(C(=O)CO)CC3OC1CC(NCCCCC(OC(C)=O)OC(C)=O)C(O)C(C)O1 (stereo partly specified) | active
Cc1c(C(=O)/C=C/c2ccccc2O)c(=O)n(-c2ccccc2)n1C | inactive
CC(C)c1ccc(O)c(=O)cc1 | inactive
CC(=O)OCC1OC(n2c(C)c(C)c(C)c(C#N)c2=S)C(OC(C)=O)C(OC(C)=O)C1OC(C)=O (stereo unspecified) | inactive
COc1c(C)c(C/C=C(\C)CCCCO[Si](c2ccccc2)(c2ccccc2)C(C)(C)C)c(OC)c(OC)c1OC | inactive
CC1=C2C(O)C(C(C)CO)C(O)CC2(C)C(O)CC1 (stereo unspecified) | inactive

* * *

Test system HCT-15, log10(GI50) listed for each of the molecules.
Quantity kind: log10(GI50) (log10 of the value in µM)

Cc1ccc(C(=O)CC(Cl)=C(Cl)Cl)cc1 | 1.83
C/C(=N\Nc1nc2cc(C(F)(F)F)ccc2s1)c1ccccn1 | -1.00
CC(=O)Oc1ccc(C)c2c1[C@H]1CC[C@]3(C)[C@@H](OC(C)=O)CC[C@H]3[C@@H]1CC2 | 1.25
O=C1/C(=C\c2cccc(Oc3ccccc3)c2)S(=O)(=O)C(c2ccccc2)N1c1ccc(Cl)cc1 (stereo unspecified) | 1.14
C[N+](C)(C)CC(=O)N/N=C(/CC1OC(=O)c2ccccc21)c1ccccc1O (stereo unspecified) | 1.56

* * *

Tested on: SNB-19
Experiment: NCI tumour cell line growth inhibition, 48 h
Active and inactive are the calls of the source. Rule as the data show it: active = GI50 up to about 1.1 µM and inactive = higher.
Possible outcomes: T (active), F (inactive)

N#CC1=C(N)N(/N=C/c2ccccc2)C(c2ccccc2)C1(C#N)C#N (stereo unspecified) | F
CN(C)CC(CN(C)C)c1ccccn1 | F
Nc1cc2c(cc1[N+](=O)[O-])[nH]c1c(-c3ccccc3)nccc12 | F
C=CCNc1ccc(C)cc1 | F
CCN(CC)C(=S)SS(C)(=O)=O | F
O=C(Nc1nc(C23CC4CC(CC(C4)C2)C3)cs1)c1cc2ccc(O)cc2oc1=O | F
CC(=O)OC1COC(Nc2nc(N)n(C)c(=O)c2N=O)C(OC(C)=O)C1OC(C)=O (stereo unspecified) | F
CO/C1=C\C(C)=C\C(C)C(O)C(C)C/C(C)=C/C=C/C(OC)C(C(C)C(O)C(C)C2(O)CC(O)C(C)C(C(C)C)O2)OC1=O (stereo unspecified) | F
C[N+](C)(C)CC(=O)N/N=C(/CC1OC(=O)c2ccccc21)c1ccccc1O (stereo unspecified) | F
C/C=C(/C)C(=O)O[C@@H]1c2c(C)coc2C[C@H]2CC[C@H](O)[C@H](C)[C@]21C | F
CCOC(=O)Nc1cc2c(c(N)n1)N=C(c1ccc(Cl)cc1Cl)CN2 | T
C/C(=N\Nc1nc2cc(C(F)(F)F)ccc2s1)c1ccccn1 | T
CC1(C)CCC2=C(O1)c1ccccc1/C(=N/c1ccc([N+](=O)[O-])cc1)C2=O | F
Cc1cccc2c1C(=O)OC2(c1cccc2ccccc12)c1cccc2ccccc12 | F
COC(=O)[C@@]12C(=O)C=CC(=O)C1C1C(=CC2C)OC2OC3(CCCCC3)OC21 (stereo partly specified) | F
CC(=O)Oc1ccc(C)c2c1[C@H]1CC[C@]3(C)[C@@H](OC(C)=O)CC[C@H]3[C@@H]1CC2 | F
O=C1c2ccccc2-c2c1c1ccccc1c(=O)n2CCO | F
Cc1cccc(/N=C2\NC(=O)C(CC(=O)Nc3ccc(C)cc3C)S2)c1 (stereo unspecified) | F
CN(C)CCNC(=O)c1cccc2c1Oc1cccc([N+](=O)[O-])c1O2 | F
Cc1oc2nc(N(C)C)nc(NN)c2c1C | F
c1cc(C[S+]2CCCC2)ccc1C[S+]1CCCC1 | F

* * *

Tested on: BT-549
Assay: NCI tumour cell line growth inhibition, 48 h
Activity calls are given as the source filed them. Rule as the data show it: active = GI50 up to about 1.1 µM and inactive = higher.
Possible outcomes: active, inactive

CC(=O)OC1C(C)OC(OC(=O)C2CCC3C(C2)OC2(CC(OC(=O)/C=C/c4ccccc4)C(C)CO2)C32CO2)C(OC2OC(C)C(O)C(OC(C)=O)C2O)C1O (configuration not stated) | active
O=c1[nH]/c(=C/c2ccc3c(c2)OCO3)c(=O)[nH]/c1=C/c1ccc2c(c1)OCO2 | inactive
COc1c(C)c(C/C=C(\C)CCCCO[Si](c2ccccc2)(c2ccccc2)C(C)(C)C)c(OC)c(OC)c1OC | inactive
CNCCCn1c2ccccc2c2c3c(c(-c4ccsc4)cc21)C(=O)NC3=O | inactive
Cc1c(-c2ccccc2)c(C#N)c2nnn(C)c(=O)n12 | inactive
O=[N+]([O-])c1ncc(N(CCO)CCO)s1 | inactive
COC(=O)/C=C\[C@H]1[C@H](C)N1S(=O)(=O)c1ccc(C)cc1 (some centres not stated) | inactive
Cc1ccc(N2C(=O)C(=O)N(/N=C3\C(=O)Nc4ccccc43)C2=S)cc1 | inactive
Cc1cc(NC(=O)C(=O)Cc2nc3ccccc3s2)ccc1Cl | inactive
COc1ccc2c(CC(=O)O)cc(=O)oc2c1 | inactive
Cc1ccc(S(=O)(=O)NC(=O)NS(=O)(=O)O)cc1 | inactive
N#Cc1cc2c(cc1Cl)Sc1nnc(Nc3ccccc3)n1S2(=O)=O | inactive
N=C(N)NC(=N)Nc1ccccc1.Sc1nc2ccccc2s1 | inactive
CC(=O)N1C(Nc2ccccn2)CCN1c1ccccc1 (configuration not stated) | inactive
CN(C)CCCN1c2ccccc2CCc2cccc([N+](=O)[O-])c21 | inactive
CCOC(=O)c1cc(C2CCN(Cc3ccccc3)C2=O)c(C(=O)/C=C(/C)N)[nH]1 (configuration not stated) | inactive
O=C1NC(N2CCOCC2)=N/C1=C\c1ccccc1 | inactive
CCc1nnc(-n2c(C)nc3cc(Cl)ccc3c2=O)s1 | inactive
CC(NC(=O)C(C)C(=O)NCc1ccc(C(F)(F)F)cc1)C(N)=O (configuration not stated) | inactive
O=C(CSc1nc(O)nc2[nH]cnc12)Nc1ccccc1 | inactive
C/C(=N\NC(=O)c1ccccc1O)c1cccc(/C(C)=N/NC(=O)c2ccccc2O)n1 | inactive
COc1cc(N2C(=O)C(=O)C3(CCCCC3)C2=O)cc(OC)c1OC | inactive

* * *

System: K562
Experiment: NCI tumour cell line growth inhibition, 48 h
Activity calls are given as the source filed them. Cut-off read from the data, not from the text of the source: active = GI50 up to about 1.1 µM and inactive = higher.
Possible outcomes: active, inactive

N=C(N)N/N=C(\c1ccc(Cl)cc1)C1CC1 | inactive
CC(ON(C(c1ccccc1)C(C)C)C(C)(C)C)c1ccccc1 (stereo not given) | inactive
CCOC(=O)C12CC1(C(=O)OCC)C1CCC2C1 (stereo not given) | inactive
CC(C)c1cc2c(c(O)c1O)[C@@]1(C(=O)O)CCCC(C)(C)[C@@H]1CC2 [CARNOSIC ACID] | inactive
CCN(CCO)CCNc1ccc(C)c2sc3ccccc3c(=O)c12 | inactive
Cc1oc2nc(N(C)C)nc(NN)c2c1C | inactive
Cc1cc([C@H](C#N)c2nc3ccccc3[nH]2)nc(Cl)n1 | inactive
COC(=O)C1=C(C)N(NC(=O)OC(C)(C)C)C(=O)C1=P(c1ccccc1)(c1ccccc1)c1ccccc1 | inactive
CC1(C)[C@@H]2C[C@H]1C(Cc1cccc(C[C@H]3c4cc(-c5ccccn5)ncc4[C@H]4C[C@@H]3C4(C)C)c1)c1cc(-c3ccccn3)ncc12 (stereo not given in full) | active
CC(=O)c1c2c(cc3c1CC1(C3)Cc3cc4c(c(C(C)=O)c3C1)CCCC4)CCCC2 | inactive

* * *

Test system: SF-539
Test: NCI tumour cell line growth inhibition, 48 h
Activity calls are given as the source filed them. No stated cut-off is given here; in the data, active = GI50 up to about 1.1 µM and inactive = higher. Bridge positions count the residues as written; N and C are the ends. Peptide text beside a SMILES is read from it. * marks the point of attachment. Cbz = O=C(OCc1ccccc1)*
Possible outcomes: 1 = active, 0 = inactive

CC1=C(C(=O)N[C@@H](Cc2ccccc2)C(=O)O)N2C(=O)[C@@H](NC(=O)[C@@H](N)CC(C)C)[C@H]2SC1 | 0
ClCCCCCc1c2nc(c(CCCCCCl)c3ccc([nH]3)c(CCCCCCl)c3nc(c(CCCCCCl)c4ccc1[nH]4)C=C3)C=C2 | 0
CCN(CC)c1nc(N(C)C)c2ccc(OC)cc2n1 | 0
Cc1cccc(C)c1NC(=O)CCCC(=O)C(C#N)c1ccccc1 (centres undefined) | 0
CCNCCC1(CC)C(=O)NC(=O)NC1=O | 0
CC(C)Cn1cnc2c(Sc3c([N+](=O)[O-])ncn3C)nc(N)nc21 | 0
O=C(O)c1ccccc1C(=O)Nn1cnnc1 | 0
c1ccc2c(c1)OCCOCCOc1ccccc1OCCO2 | 0
CC(C)[C@]12O[C@H]1[C@@H]1O[C@]13[C@]1(O[C@H]1C[C@H]1C4=C(CC[C@@]13C)C(=O)OC4)[C@@H]2O [TRIPTOLIDE] | 1
Cc1ccc(-n2cc(-c3ccc(Cl)cc3)c3c(N/N=C4\SCC(=O)N4C)ncnc32)cc1 | 0
Cc1ccc(S(=O)(=O)NC(=O)NS(=O)(=O)O)cc1 | 0
COc1c(C)c(C/C=C(\C)CCCCO[Si](c2ccccc2)(c2ccccc2)C(C)(C)C)c(OC)c(OC)c1OC | 0
CC(C)OP(=O)(OC(C)C)C(Nc1cccc(C(F)(F)F)c1)c1ccccc1 (centres undefined) | 0
CNC(=O)C1CCCCNC(=O)CCC(NC(=O)OCc2ccccc2)C(=O)N1 (stereo not drawn) (Cbz-Glu-Lys-NHMe; lactam 1-2; configuration not given here) | 0
CC(=O)OCc1ncccc1C(OC(C)=O)OC(C)=O | 0
CC(=O)Oc1ccc(C)c2c1[C@H]1CC[C@]3(C)[C@@H](OC(C)=O)CC[C@H]3[C@@H]1CC2 | 0
CC1=NC(=Cc2ccccc2O)C(=O)N1n1c(-c2ccccc2)nc2ccccc2c1=O | 0
CN(C)CCN1CCc2c([nH]c3ccccc23)C1c1cccnc1 (centres undefined) | 0
C/C=C(/C)C(=O)O[C@@H]1c2c(C)coc2C[C@H]2CC[C@H](O)[C@H](C)[C@]21C | 0
